We begin with a simple list: items and their reported Kd.
- Assay system: T1, human 5T4 antigen (human, UniProt Q13641 32-355, limits assumed)
- T1 construct: Isolated antigen as used in BIACORE and ELISA; also called 5T4 oncofetal antigen
- T1 sequence (looked up): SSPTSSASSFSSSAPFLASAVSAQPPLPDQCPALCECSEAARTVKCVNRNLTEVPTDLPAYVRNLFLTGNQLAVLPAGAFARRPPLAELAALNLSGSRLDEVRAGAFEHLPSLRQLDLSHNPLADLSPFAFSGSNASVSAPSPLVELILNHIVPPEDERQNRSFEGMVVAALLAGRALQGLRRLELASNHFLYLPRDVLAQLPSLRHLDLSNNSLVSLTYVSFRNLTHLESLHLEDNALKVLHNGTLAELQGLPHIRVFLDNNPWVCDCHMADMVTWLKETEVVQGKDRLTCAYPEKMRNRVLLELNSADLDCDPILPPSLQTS
- Method notes: BIACORE, human 5T4 antigen immobilized on a CM5 chip, antibody 12.5 nM to 200 nM
All answers are understood in nM, so give the number only.

// below: answered binders
Binder	Display unit	Kd
Humanized H8 version 3 (hVH3/hVL2) (antibody, human IgG4 S228P, kappa, V domains shown) VH: QVQLVQSGAEVKKPGASVKVSCKASGYSFTGYYMHWVRQAPGQGLEWMGRINPNNGVTLYNQKFKDRVTITRDTSTSTAYMELSSLRSEDTAVYYCARSTMITNYVMDYWGQGTLVTVSS VL: DIVMTQSPDSLAVSLGERATINCKASQSVSNDVAWYQQKPGQPPKLLIYYTSSRYAGVPDRFSGSGSGTDFTLTISSLQAEDVAVYYCQQDYNSPPTFGGGTKLEIKR	nM	0.12
Humanized H8 version 2 (hVH2/hVL2) (antibody, human IgG4 S228P, kappa, V domains shown) VH: QVQLVQSGAEVKKPGASVKVSCKASGYSFTGYYMHWVRQAPGQGLEWMGRINPNNGVTLYNQKFKDRVTMTRDTSISTAYMELSRLRSDDTAVYYCARSTMITNYVMDYWGQGTLVTVSS VL: DIVMTQSPDSLAVSLGERATINCKASQSVSNDVAWYQQKPGQPPKLLIYYTSSRYAGVPDRFSGSGSGTDFTLTISSLQAEDVAVYYCQQDYNSPPTFGGGTKLEIKR	nM	0.12
murine H8 anti-5T4 antibody (antibody, V domains shown, also called mAb5T4; H8 antibody) VH: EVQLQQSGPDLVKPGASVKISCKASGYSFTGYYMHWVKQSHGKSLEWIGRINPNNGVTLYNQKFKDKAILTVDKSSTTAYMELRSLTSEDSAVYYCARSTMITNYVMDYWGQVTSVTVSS VL: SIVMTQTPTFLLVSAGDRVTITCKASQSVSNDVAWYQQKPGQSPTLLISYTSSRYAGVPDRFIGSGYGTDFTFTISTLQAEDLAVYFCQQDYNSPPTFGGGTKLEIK	nM	0.58

// switching to the query binder
Value of Kd reported for the binder Chimeric H8 (mVH/mVL) (antibody, V domains shown, also called chimeric H8 antibody; chimeric versions of H8) VH: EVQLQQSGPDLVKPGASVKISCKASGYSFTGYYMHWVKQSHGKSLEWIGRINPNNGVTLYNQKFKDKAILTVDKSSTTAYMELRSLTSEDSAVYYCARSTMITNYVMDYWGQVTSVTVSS VL: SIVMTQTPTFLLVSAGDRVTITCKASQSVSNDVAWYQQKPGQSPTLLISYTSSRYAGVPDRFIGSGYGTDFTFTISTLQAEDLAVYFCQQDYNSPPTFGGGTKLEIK is 0.3

src = patent US20060088522A1
